Source of measurements: PubChem BioAssay (NCI)

Tested on: NCI-H322M lung
protocol notes: NCI-60 one-dose screen, 48 h
run conditions: 10 µM unless noted
This is part of a sample that, as a whole, favours compounds with a hit. Of some 83,000 tested, about 20% had one in any assay. Activity calls are given as the source filed them. The calls were made as follows: active = growth percent below 10; inactive = the rest.
Labels: active, inactive

- compound: "C=CCn1c(-c2ccc(-c3nc4ccc(C)cc4[nH]3)cc2)n[nH]c1=S"
  study system: "NCI-H322M lung"
  assigned class: "inactive"
- compound: "CC1=C(C(=O)/C=C/c2c[nH]c3ccccc23)C(c2ccccc2)NC(=S)N1 (centres undefined)"
  study system: "NCI-H322M lung"
  assigned class: "inactive"
- compound: "Brc1ccc2[nH]cc(-c3cncn3CCc3ccccc3)c2c1"
  study system: "NCI-H322M lung"
  assigned class: "inactive"
- compound: "Cc1ccc(C(=O)/C(=C/c2ccc([N+](=O)[O-])cc2)SCc2ccc(Cl)cc2)cc1"
  study system: "NCI-H322M lung"
  assigned class: "inactive"
- compound: "CNCCOc1nc2c3cnccc3cc(-c3cc(OC)c(OC)c(OC)c3)c2c2ccncc12"
  study system: "NCI-H322M lung"
  assigned class: "active"
- compound: "C#Cc1cccc(NC(=O)c2cccc(NC(=O)CCl)c2)c1"
  study system: "NCI-H322M lung"
  assigned class: "inactive"
- compound: "O=C(CSc1nc2sc3c(c2c(=O)n1-c1ccc(Cl)cc1)CCCC3)Nc1nc(-c2cccc(Br)c2)cs1"
  study system: "NCI-H322M lung"
  assigned class: "inactive"
- compound: "C=C(C)[C@@H]1CC[C@]2(C(=O)N[C@H](CO)Cc3ccccc3)CC[C@]3(C)[C@H](CC[C@@H]4[C@@]5(C)CCCNC(C)(C)[C@@H]5CC[C@]43C)[C@@H]12"
  study system: "NCI-H322M lung"
  assigned class: "active"
- compound: "O=C1c2ccc3c4c(ccc(c24)C(=O)N1CCCNCc1ccccc1F)C(=O)N(CCCNCc1ccccc1F)C3=O"
  study system: "NCI-H322M lung"
  assigned class: "active"
- compound: "[O-][n+]1c(Cl)cc(Cl)c2ccccc21"
  study system: "NCI-H322M lung"
  assigned class: "inactive"
- compound: "NS(=O)(=O)c1ccc(Cn2c(SCC(=O)N/N=C/c3ccccc3O)nc3ccccc3c2=O)cc1"
  study system: "NCI-H322M lung"
  assigned class: "inactive"
- compound: "Cc1ccc(NC(=O)Cc2ccc(/C=C/C(=O)c3ncc[nH]3)cc2)cc1"
  study system: "NCI-H322M lung"
  assigned class: "inactive"
- compound: "COc1ccc(C(=O)c2cc(C)c(OC)c(C)c2)c(OC)c1OC(=O)C(Cl)Cl"
  study system: "NCI-H322M lung"
  assigned class: "inactive"
- compound: "O=[N+]([O-])c1ccc(N=Nc2cc(S(=O)(=O)O)c3cccc(S(=O)(=O)O)c3c2O)cc1"
  study system: "NCI-H322M lung"
  assigned class: "inactive"
- compound: "O=C(NNc1nc2c(F)cccc2n2cccc12)c1cnccn1"
  study system: "NCI-H322M lung"
  assigned class: "inactive"
- compound: "CC(=O)[C@H]1CCC/C=C/[C@@H]2C[C@H](O)C[C@H]2[C@H](O)/C=C/C(=O)O1"
  study system: "NCI-H322M lung"
  assigned class: "inactive"
- compound: "CN(C)c1ccc(C2C(C#N)=C(/N=C/c3ccccc3)Oc3c2ccc2ccccc32)cc1 (centres undefined)"
  study system: "NCI-H322M lung"
  assigned class: "inactive"
- compound: "COc1cccc(-c2cc(C(=O)Nc3ccc(/C=C/c4ccc(OC5CCN(C)CC5)cc4)cc3)ccc2OC)c1"
  study system: "NCI-H322M lung"
  assigned class: "active"
- compound: "COc1ccc(/C=C/c2nc(Nc3cccc(NC(C)=O)c3)c3ccccc3n2)cc1"
  study system: "NCI-H322M lung"
  assigned class: "inactive"

----------
Test system: SR leukemia
protocol notes: NCI-60 one-dose screen, 48 h
run conditions: 10 µM unless noted
Compounds without any hit were thinned out: in the full panel of roughly 83,000, 20% have a hit. The source made the active and inactive calls. Rule for the calls: active = growth percent below 10; inactive = the rest.
Outcome codes: active, inactive

- compound: "COc1cc2oc(-c3cccc(C(=O)Nc4ccc(Cl)cc4)c3)cc(=O)c2c(O)c1OC"
  study system: "SR leukemia"
  assigned class: "inactive"
- compound: "O=C(Cn1c[n+](CC(=O)c2ccc([N+](=O)[O-])cc2)c2ccccc21)Nc1cccc2cccnc12"
  study system: "SR leukemia"
  assigned class: "inactive"
- compound: "Cc1ccc(-c2csc(NC(=O)CSc3nc(-c4ccccc4)cc(=O)[nH]3)n2)cc1"
  study system: "SR leukemia"
  assigned class: "inactive"
- compound: "N#CC1C(C#N)C(C(=O)c2ccc(Br)cc2)N2c3ccccc3C=CC12 (stereo not given)"
  study system: "SR leukemia"
  assigned class: "inactive"
- compound: "C=C1C(=O)O[C@H]2[C@H]1CC/C(CNC(=O)/C=C/c1ccccc1)=C\\CC[C@@]1(C)O[C@@H]21"
  study system: "SR leukemia"
  assigned class: "active"

----------
System: NCI-H226 lung
protocol notes: NCI-60 one-dose screen, 48 h
run conditions: 10 µM unless noted
Compounds without any hit were thinned out: in the full panel of roughly 83,000, 20% have a hit. Calls of active or inactive are those of the source. The calls were made as follows: active = growth percent below 10; inactive = the rest.
Labels: active, inactive

- compound: "COc1ccc(C(=O)c2cc(C)c(OC)c(C)c2)c(OC)c1N(C(=O)CCl)C(=O)CCl"
  study system: "NCI-H226 lung"
  assigned class: "active"
- compound: "CN(C)CCn1c2ccc(Br)cc2c2nc3ccccc3nc21"
  study system: "NCI-H226 lung"
  assigned class: "inactive"
- compound: "O=C1Nc2cc(-c3cccc([N+](=O)[O-])c3)ccc2/C1=C/c1ccc[nH]1"
  study system: "NCI-H226 lung"
  assigned class: "inactive"
- compound: "COc1ccc(-c2cnc3c(-c4cccc5ncccc45)cnn3c2)cc1"
  study system: "NCI-H226 lung"
  assigned class: "active"
- compound: "c1ccc2c(-c3c[nH]c4ccccc34)c3c(cc2c1)[nH]c1ccccc13"
  study system: "NCI-H226 lung"
  assigned class: "inactive"
- compound: "CCOC(=O)CCN(CC(C)C)C(=S)Nc1ccccc1"
  study system: "NCI-H226 lung"
  assigned class: "inactive"
- compound: "N#CC(C(=O)/C(=N/NC(=O)c1ccccc1O)C(C#N)c1ccccc1)c1ccccc1 (centres undefined)"
  study system: "NCI-H226 lung"
  assigned class: "inactive"
- compound: "CCOc1ccc(/C=N/Nc2cc(C)nc3ccc(Br)cc23)cc1"
  study system: "NCI-H226 lung"
  assigned class: "inactive"
- compound: "CC(=O)OC[C@]12CC[C@@H](C(=O)CBr)[C@@H]1[C@H]1CC[C@@H]3[C@@]4(C)CC[C@H](OC(C)=O)C(C)(C)[C@@H]4CC[C@@]3(C)[C@]1(C)CC2"
  study system: "NCI-H226 lung"
  assigned class: "inactive"

----------
Test system: IGROV1 ovarian
protocol notes: NCI-60 one-dose screen, 48 h (100 = growth as untreated, 0 = no growth, -100 = all killed)
run conditions: 10 µM unless noted
The panel holds about 83,000 compounds, 20% with a hit somewhere; the sample as a whole holds those more often.
Overview of reported growth across a group of compounds:
measured endpoint: growth (%)

- compound: "CC1(C)NCCC[C@]2(C)[C@H]3CC(=O)[C@H]4[C@@H]5C[C@](C)(CO)CC[C@]5(C)CC[C@@]4(C)[C@]3(C)CC[C@@H]12"
  measured endpoint: "growth"
  unit of measurement: "%"
  measured: 98.1
- compound: "COc1cc2nc(-c3ccc(Cl)cc3)cc(OCCCN3CCCCC3)c2cc1OC"
  measured endpoint: "growth"
  unit of measurement: "%"
  measured: 33.2
- compound: "CCOC(=O)c1cc(C(=O)c2ccc(OC)c(OC)c2)n2ccc(/C=C/c3cc[n+](CC(=O)c4ccc(OC)c(OC)c4)cc3)cc12"
  measured endpoint: "growth"
  unit of measurement: "%"
  measured: 88.6
- compound: "O=C(O)c1ccc(-c2nn(-c3ccc(C(F)(F)F)cc3)cc2CNc2ccc(Oc3ccccc3)cc2)cc1"
  measured endpoint: "growth"
  unit of measurement: "%"
  measured: 89
- compound: "Cn1c2ccccc2c2c3c(c4c5ccccc5n(C)c4c21)C(=O)OC3"
  measured endpoint: "growth"
  unit of measurement: "%"
  measured: 78
- compound: "COC(=O)C1=C(C(=O)ON)[C@@H]2C=C[C@@]1([C@@H](Cc1ccccc1)Nc1ccccc1)O2"
  measured endpoint: "growth"
  unit of measurement: "%"
  measured: 85.6
- compound: "CC1=C(C(=O)/C=C/c2c[nH]c3ccccc23)C(c2ccccc2)NC(=S)N1 (configuration not stated)"
  measured endpoint: "growth"
  unit of measurement: "%"
  measured: 76.8
- compound: "COc1cc(/C=C/c2cc(O)c(C(C)=O)c(O)c2)cc2c1O[C@]1(C)CC[C@@H](O)C(C)(C)[C@H]1C2"
  measured endpoint: "growth"
  unit of measurement: "%"
  measured: 60.3
- compound: "CCCCCC(=O)Oc1ccc(/C(=C(/C)Cc2ccc(OC)cc2)c2ccc(OCCCN(C)C)cc2)cc1"
  measured endpoint: "growth"
  unit of measurement: "%"
  measured: 63.9
- compound: "COc1ccccc1NS(=O)(=O)c1cccc(C(=O)Nc2ccc(Br)cc2)c1"
  measured endpoint: "growth"
  unit of measurement: "%"
  measured: 46.6
- compound: "COc1cccc(-c2nc3occn3c2-c2ccnc(NCCNS(=O)(=O)c3ccc(C(F)(F)F)cc3)n2)c1"
  measured endpoint: "growth"
  unit of measurement: "%"
  measured: 80.6
- compound: "COc1cc2c(c(O)c1Cl)C(=O)c1c(O)cc(C[C@H](C)O)cc1[C@H]2[C@H]1c2cc(C[C@H](C)O)cc(O)c2C(=O)c2c1cc(OC)c(Cl)c2O"
  measured endpoint: "growth"
  unit of measurement: "%"
  measured: 10.4
- compound: "CC(=O)c1cc2c(N)c(C(=O)Nc3cccc4ccncc34)sc2nc1C"
  measured endpoint: "growth"
  unit of measurement: "%"
  measured: 101
- compound: "CC1(C)CC(=O)C2=C(C1)N(c1ccc(F)cc1F)C(N)=C(C#N)C2c1cc(Br)ccc1F (configuration not stated)"
  measured endpoint: "growth"
  unit of measurement: "%"
  measured: 94.3
- compound: "CCCCCN1C=C/C(=C\\C(=O)N(C)c2ccc(OC(F)(F)F)cc2)c2ccccc21"
  measured endpoint: "growth"
  unit of measurement: "%"
  measured: 93.2
- compound: "CCc1c2c(nc3ccc(OCc4ccc(B(O)O)cc4)cc13)-c1cc3c(c(=O)n1C2)COC(=O)[C@]3(O)CC"
  measured endpoint: "growth"
  unit of measurement: "%"
  measured: 17.6
- compound: "Cc1cnc(C(=O)Nc2nc3ccc(S(=O)(=O)Nc4ccc(C(C)(C)C)cc4)cc3[nH]2)cn1"
  measured endpoint: "growth"
  unit of measurement: "%"
  measured: 35.1
